Where do the numbers come from? From PubChem BioAssay (NCI).

Test system: UACC-257 melanoma
Test: NCI tumour cell line growth inhibition, 48 h
Quantity Name: TGI

[
  {
    "Compound": "COc1cc(C(=O)C/C(CCC(=O)Nc2ccccc2[N+](=O)[O-])=N\\NC(N)=O)ccc1O",
    "Measured Target": "UACC-257 melanoma",
    "TGI": "> 100 µM"
  },
  {
    "Compound": "N#CC(C#N)=C1NC(=O)CC(=O)N1",
    "Measured Target": "UACC-257 melanoma",
    "TGI": "> 100 µM"
  },
  {
    "Compound": "CC(=O)/C=C/c1cn(C(=O)OC(C)(C)C)c2ccc(Br)cc12",
    "Measured Target": "UACC-257 melanoma",
    "TGI": "> 100 µM"
  },
  {
    "Compound": "CC1CC(C)C(C#N)N(C)c2ccccc21 (stereo not given)",
    "Measured Target": "UACC-257 melanoma",
    "TGI": "> 100 µM"
  },
  {
    "Compound": "O=C(NC1CCCCC1)NS(=O)(=O)c1ccc2c(c1)CCC2",
    "Measured Target": "UACC-257 melanoma",
    "TGI": "> 100 µM"
  },
  {
    "Compound": "FC(F)(F)c1ccc(-c2cnc(-c3ncon3)nc2NC2CCCCCC2)cc1",
    "Measured Target": "UACC-257 melanoma",
    "TGI": "> 100 µM"
  },
  {
    "Compound": "Cc1cccc(C)c1NC(=O)/C(=N/NC(N)=S)C(C)C(=O)c1ccc(Cl)cc1 (stereo not given)",
    "Measured Target": "UACC-257 melanoma",
    "TGI": "> 100 µM"
  },
  {
    "Compound": "CC/C=C\\C/C=C\\C/C=C\\CCCCCCCC(=O)OCC(O)CO (stereo not given)",
    "Measured Target": "UACC-257 melanoma",
    "TGI": "> 100 µM"
  },
  {
    "Compound": "CO/C(=N\\N=C\\c1ccc(OC)c(OC)c1)c1ccncc1",
    "Measured Target": "UACC-257 melanoma",
    "TGI": "> 10 µM"
  },
  {
    "Compound": "COc1cc(N2C(=O)[C@H](O)C2c2ccc(SC)cc2)cc(OC)c1OC (stereo not given in full)",
    "Measured Target": "UACC-257 melanoma",
    "TGI": "> 100 µM"
  }
]

Exam item: Param item = `C/C(=N\Nc1ccc([N+](=O)[O-])cc1[N+](=O)[O-])c1sc(-n2nc(-c3ccccc3)cc2-c2ccccc2)nc1C` ; retrieve measured TGI.
Marked response: 84.7 µM

Exam item: Param item = `Cc1ccc(NC(Nc2ccc(C)cc2C)=C(/C=C(\Cl)[N+](=O)[O-])[N+](=O)[O-])c(C)c1` ; retrieve measured TGI.
Marked response: 13.1 µM

====

TGI overview
System: CAKI-1 renal
Experiment: NCI tumour cell line growth inhibition, 48 h

Observe how each entry below is paired with its result.
[
  {
    "Compound": "O=[N+]([O-])c1nccn1CCCNc1ccnc2cc(Cl)ccc12",
    "Quantity Name": "TGI",
    "Result": "> 7.83 µM"
  },
  {
    "Compound": "CCOC(=O)C1C(c2ccc3c(c2)OCO3)c2c([nH][nH]c2=O)CC1(C)O (stereo not drawn)",
    "Quantity Name": "TGI",
    "Result": "> 100 µM"
  },
  {
    "Compound": "Cc1cc(C)c(-n2[nH]c(=O)n(C)c2=O)c(C)c1",
    "Quantity Name": "TGI",
    "Result": "> 100 µM"
  },
  {
    "Compound": "N#C[C@H](OC1OC(COC2OC(CO)C(O)C(O)C2O)C(O)C(O)C1O)c1ccccc1 (stereo partly drawn)",
    "Quantity Name": "TGI",
    "Result": "> 250 µM"
  },
  {
    "Compound": "COc1cc2c(cc1OC)C1C=NC(C2)c2cc(OC)c(OC)cc21 (stereo not drawn)",
    "Quantity Name": "TGI",
    "Result": "> 100 µM"
  },
  {
    "Compound": "COc1cc(N2C(=O)[C@H](O)C2c2ccc(SC)cc2)cc(OC)c1OC (stereo partly drawn)",
    "Quantity Name": "TGI",
    "Result": "> 100 µM"
  },
  {
    "Compound": "COC(=O)[C@@H]1CC(C(C[N+](=O)[O-])c2ccc(O[Si](C)(C)C(C)(C)C)cc2)C(=O)N1C(=O)OC(C)(C)C (stereo partly drawn)",
    "Quantity Name": "TGI",
    "Result": "> 100 µM"
  },
  {
    "Compound": "COc1cccc(OC)c1C(=O)OCc1ccccc1",
    "Quantity Name": "TGI",
    "Result": "> 100 µM"
  },
  {
    "Compound": "COc1cc2c(c(OC)c1)/C(=C/Sc1ccccc1)C(=O)N(C(C)(C)C)C2",
    "Quantity Name": "TGI",
    "Result": "> 100 µM"
  },
  {
    "Compound": "CCc1nn(CN2CCOCC2)c(=S)n1/N=C/c1ccc(-c2ccc(Cl)cc2)o1",
    "Quantity Name": "TGI",
    "Result": "> 100 µM"
  }
]

Exam item: Param item = O=C1OC(Cc2ccccc2)(N2CCCC2=O)C1c1ccccc1 (stereo not drawn) ; retrieve measured TGI.
Marked response: > 100 µM

Exam item: Param item = O=C(NNCC(O)COc1ccccc1)c1ccccc1 (stereo not drawn) ; retrieve measured TGI.
Marked response: > 100 µM

Exam item: Param item = CC(=O)C1C(=O)C(=O)N(c2cccc([N+](=O)[O-])c2)C1=O (stereo not drawn) ; retrieve measured TGI.
Marked response: > 100 µM

====

Tested on: NCI-H522 lung
Experiment: NCI tumour cell line growth inhibition, 48 h
Quantity Name: TGI

Observe how each entry below is paired with its result.
[
  {
    "Compound": "COC(=O)[C@@H]1[C@H](OC(C)=O)CCC2[C@@]3(C[C@@H](c4ccoc4)O[C@@H]3OC)[C@H](C)CC[C@]21C(=O)OC (stereo partly drawn)",
    "TGI": "> 25 µM"
  },
  {
    "Compound": "O=C(NNCC(O)COc1ccccc1)c1ccccc1 (stereo not drawn)",
    "TGI": "> 100 µM"
  }
]

Now for another entry.
Exam item: Param item = `COC(=O)c1onc(-c2c(OC)cc(OC)cc2OC)c1C(=O)OC` ; retrieve measured TGI.
Marked response: > 100 µM

====

System: LOX IMVI melanoma
Test: NCI tumour cell line growth inhibition, 48 h
TGI overview

Observe how each entry below is paired with its result.
[
  {
    "Compound": "COc1cc(N2C(=O)[C@H](O)C2c2ccc(SC)cc2)cc(OC)c1OC (some centres undefined)",
    "TGI": "> 100 µM"
  },
  {
    "Compound": "COCc1nc(N)nc(N2N=C(C)CC2(C)C)n1",
    "TGI": "> 100 µM"
  },
  {
    "Compound": "COc1cc(C(=O)C/C(CCC(=O)Nc2ccccc2[N+](=O)[O-])=N\\NC(N)=O)ccc1O",
    "TGI": "> 100 µM"
  },
  {
    "Compound": "CC#CCC1CCC(OCC)=CC1=O (centres undefined)",
    "TGI": "> 100 µM"
  },
  {
    "Compound": "Nc1n[n+](CC(=O)c2ccccc2)c2sc(-c3ccccc3)nn12",
    "TGI": "> 100 µM"
  }
]

Exam item: GET /values?readout=TGI&system=LOX IMVI melanoma&item= `COC(=O)c1onc(-c2c(OC)cc(OC)cc2OC)c1C(=O)OC`
Marked response: > 100 µM

Exam item: GET /values?readout=TGI&system=LOX IMVI melanoma&item= `CCOC(=O)/C(C=Nc1c(C)n(C)n(-c2ccccc2)c1=O)=C(/C)O`
Marked response: > 100 µM

====

Tested on: NCI-H23 lung
Experiment: NCI tumour cell line growth inhibition, 48 h
Quantity Name: TGI

Observe how each entry below is paired with its result.
[
  {
    "Compound": "COc1ccc(C2SCC(=O)N2c2ccc(-c3ccc(-n4c(-c5ccccc5)nc5ccccc5c4=O)cc3)cc2)cc1OC (centres undefined)",
    "Measured Target": "NCI-H23 lung",
    "TGI": "> 100 µM"
  },
  {
    "Compound": "CCc1nn(CN2CCOCC2)c(=S)n1/N=C/c1ccc(-c2ccc(Cl)cc2)o1",
    "Measured Target": "NCI-H23 lung",
    "TGI": "> 100 µM"
  },
  {
    "Compound": "CCN(CC)CC1CCCCN1CC(=O)N1c2ccccc2C(=O)Nc2cccnc21 (centres undefined)",
    "Measured Target": "NCI-H23 lung",
    "TGI": "> 100 µM"
  },
  {
    "Compound": "CCC(C=O)P1(=O)OC(C)(C)CN1C(C)(C)C (centres undefined)",
    "Measured Target": "NCI-H23 lung",
    "TGI": "> 100 µM"
  },
  {
    "Compound": "O=C(CSc1nnc(Cc2ccccc2)o1)Nc1ccccc1",
    "Measured Target": "NCI-H23 lung",
    "TGI": "> 100 µM"
  }
]

Exam item: Param item = O=C1OCC2=C1C(c1ccc(Cl)c(Cl)c1)c1cc3c(cc1N2CCO)OCCO3 (centres undefined) ; retrieve measured TGI.
Marked response: 21.7 µM

Exam item: Param item = `CCOc1ccccc1C(=O)N1CCN(c2cc(Cl)cc(Cl)c2)CC1` ; retrieve measured TGI.
Marked response: 9.46 µM

Exam item: Param item = `Cc1ccc(/C=C/C(=O)C(C)(C)CN2CCCCC2)cc1` ; retrieve measured TGI.
Marked response: 30.5 µM

Exam item: Param item = CCOC(=O)C1C(c2ccc3c(c2)OCO3)c2c([nH][nH]c2=O)CC1(C)O (centres undefined) ; retrieve measured TGI.
Marked response: > 100 µM

Exam item: Param item = `O=c1ssc(=Nc2ccccc2)n1-c1ccccc1` ; retrieve measured TGI.
Marked response: 50.2 µM

Exam item: Param item = `CO/N=C(/C)c1ccc(NC(=O)CSc2nnc(-c3ccncc3)n2-c2ccccc2)cc1` ; retrieve measured TGI.
Marked response: > 100 µM

Exam item: Param item = O=C(NC1CCCCC1NC(c1ccccc1)(c1ccccc1)c1ccccc1)C(=O)NC1CCCCC1NC(c1ccccc1)(c1ccccc1)c1ccccc1 (centres undefined) ; retrieve measured TGI.
Marked response: > 100 µM
